These data points were gathered from ChEMBL document CHEMBL1152507.

TARGET_OR_SYSTEM: UniProt:P31645
Sequence (P31645 whole entry): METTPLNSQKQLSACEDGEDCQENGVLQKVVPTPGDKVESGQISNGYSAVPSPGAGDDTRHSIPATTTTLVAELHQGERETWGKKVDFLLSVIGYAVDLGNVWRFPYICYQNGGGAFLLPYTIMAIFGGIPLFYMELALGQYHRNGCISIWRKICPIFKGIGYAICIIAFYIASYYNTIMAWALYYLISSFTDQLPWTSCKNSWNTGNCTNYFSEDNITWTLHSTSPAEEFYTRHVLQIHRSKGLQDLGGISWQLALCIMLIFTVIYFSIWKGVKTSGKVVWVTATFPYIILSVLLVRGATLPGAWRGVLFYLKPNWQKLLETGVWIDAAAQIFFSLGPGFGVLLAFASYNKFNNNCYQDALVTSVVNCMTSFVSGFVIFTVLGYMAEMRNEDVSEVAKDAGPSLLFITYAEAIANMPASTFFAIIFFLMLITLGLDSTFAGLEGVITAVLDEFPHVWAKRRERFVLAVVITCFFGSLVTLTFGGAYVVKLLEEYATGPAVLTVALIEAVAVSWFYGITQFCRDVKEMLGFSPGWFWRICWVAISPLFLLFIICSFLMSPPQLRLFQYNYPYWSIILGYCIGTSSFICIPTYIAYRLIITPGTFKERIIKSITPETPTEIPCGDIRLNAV
TEST_DETAILS: Displacement of [125I]methyl 3-(4-iodophenyl)-8-methyl-8-aza-bicyclo[3.2.1]octane-2-carboxylate from human recombinant SERT expressed in african green monkey COS1 cells by liquid scintillation counting
In this section we review reported log10 Ki values for a set of compounds.
Hey, these are logged values: log10 of Ki, nM being the unit before logging.

[
  {
    "COMPOUND": "CN1C2CCC1[C@@H](C(=O)Nc1ccc(CNC(=O)[C@H]3C4CCC(C[C@@H]3c3ccc(-c5ccsc5)cc3)N4C)cc1)[C@@H](c1ccc(-c3ccsc3)cc1)C2 (stereo not given in full)",
    "log10 Ki": 2.86
  },
  {
    "COMPOUND": "CN1C2CCC1[C@@H](C(=O)N[C@H]1CC[C@H](NC(=O)[C@H]3C4CCC(C[C@@H]3c3ccc(-c5ccsc5)cc3)N4C)CC1)[C@@H](c1ccc(-c3ccsc3)cc1)C2",
    "log10 Ki": 2.91
  },
  {
    "COMPOUND": "CN1C2CCC1[C@@H](C(=O)NCCCCCCNC(=O)[C@H]1C3CCC(C[C@@H]1c1ccc(-c4ccsc4)cc1)N3C)[C@@H](c1ccc(-c3ccsc3)cc1)C2",
    "log10 Ki": 3.32
  },
  {
    "COMPOUND": "CN1C2CCC1[C@@H](C(=O)NCc1ccc(CCNC(=O)[C@H]3C4CCC(C[C@@H]3c3ccc(-c5ccsc5)cc3)N4C)cc1)[C@@H](c1ccc(-c3ccsc3)cc1)C2 (stereo not given in full)",
    "log10 Ki": 1.79
  }
]

--- query ---
Request: Tell us which log10 Ki value is on record for CN1C2CCC1[C@@H](C(=O)Nc1ccc(CCNC(=O)[C@H]3C4CCC(C[C@@H]3c3ccc(Cl)cc3)N4C)cc1)[C@@H](c1ccc(Cl)cc1)C2 (stereo not given in full)
Response: 3.41
